experiment: Volume of distribution at steady state in dog; format: ADME, organism-based, Canis lupus familiaris; details: in vivo, read-out: Vdss
Measurement type: Vd

COc1ccc(-n2nc(C(F)(F)F)c3c2C(=O)N(c2ccc(C4(CN(C)C)CC4)cc2)CC3)cc1
15 L/kg

---

test: Clearance in dog at 0.5 mg/kg, iv; type: ADME, organism-based, Canis lupus familiaris; design: dose 0.5 mg/kg, route intravenous; conditions: in vivo
Measurement type: clearance (mL/min/kg)

COc1ccc(-n2nc(C(F)(F)F)c3c2C(=O)N(c2ccc(C4(CN(C)C)CC4)cc2)CC3)cc1
20

---

target: Vitamin K-dependent protein C (Homo sapiens); assay: Inhibition of human activated protein C
The source made the active and inactive calls. No cut-off for these calls is given here.
Measurement type: Activity

COc1ccc(-n2nc(C(F)(F)F)c3c2C(=O)N(c2ccc(C4(CNC(C)C)CC4)cc2)CC3)cc1
inactive
COc1ccc(-n2nc(C(F)(F)F)c3c2C(=O)N(c2ccc(C4(C(=O)Nc5nnn[nH]5)CC4)cc2)CC3)cc1
inactive
COc1ccc(-n2nc(C(F)(F)F)c3c2C(=O)N(c2ccc(C4(C(=O)N5CCC(O)CC5)CC4)cc2)CC3)cc1
inactive
CNCC1(c2ccc(N3CCc4c(C(F)(F)F)nn(-c5ccc(OC)cc5)c4C3=O)cc2)CC1
inactive
COc1ccc(-n2nc(C(F)(F)F)c3c2C(=O)N(c2ccc(C4(CNc5nccs5)CC4)cc2)CC3)cc1
inactive
COc1ccc(-n2nc(C(F)(F)F)c3c2C(=O)N(c2ccc(C4(C(=O)N(C)C)CC4)cc2)CC3)cc1
inactive
COc1ccc(-n2nc(C(F)(F)F)c3c2C(=O)N(c2ccc(C4(CN(C)S(C)(=O)=O)CC4)cc2)CC3)cc1
inactive
COC(=O)C1(c2ccc(N3CCc4c(C(F)(F)F)nn(-c5ccc(OC)cc5)c4C3=O)cc2)CC1
inactive

---

This section lists log10(Ki) readings for Coagulation factor X (Homo sapiens, UniProt P00742).
Measurement type: log10(Ki) (log10 of the value in nM)

COc1ccc(-n2nc(C(F)(F)F)c3c2C(=O)N(c2ccc(C4(C(=O)N5CCC(O)CC5)CC4)cc2)CC3)cc1
1.73
COc1ccc(-n2nc(C(F)(F)F)c3c2C(=O)N(c2ccc(C4(CNC(C)C)CC4)cc2)CC3)cc1
-1.38
COc1ccc(-n2nc(C(F)(F)F)c3c2C(=O)N(c2ccc(C4(C(=O)Nc5nncs5)CC4)cc2)CC3)cc1
0.26
COCC1(c2ccc(N3CCc4c(C(F)(F)F)nn(-c5ccc(OC)cc5)c4C3=O)cc2)CC1
0.20
COc1ccc(-n2nc(C(F)(F)F)c3c2C(=O)N(c2ccc(C4(C(=O)NC5CCCC5)CC4)cc2)CC3)cc1
1.48
COc1ccc(-n2nc(C(F)(F)F)c3c2C(=O)N(c2ccc(C4(CO)CC4)cc2)CC3)cc1
0.38
COc1ccc(-n2nc(C(F)(F)F)c3c2C(=O)N(c2ccc(C4(C(N)=O)CC4)cc2)CC3)cc1
0.52

---

molecular target: Tissue-type plasminogen activator (Homo sapiens) (UniProt P00750); test: Inhibition of human tPA
Sequence (P00750 36-562 limits assumed): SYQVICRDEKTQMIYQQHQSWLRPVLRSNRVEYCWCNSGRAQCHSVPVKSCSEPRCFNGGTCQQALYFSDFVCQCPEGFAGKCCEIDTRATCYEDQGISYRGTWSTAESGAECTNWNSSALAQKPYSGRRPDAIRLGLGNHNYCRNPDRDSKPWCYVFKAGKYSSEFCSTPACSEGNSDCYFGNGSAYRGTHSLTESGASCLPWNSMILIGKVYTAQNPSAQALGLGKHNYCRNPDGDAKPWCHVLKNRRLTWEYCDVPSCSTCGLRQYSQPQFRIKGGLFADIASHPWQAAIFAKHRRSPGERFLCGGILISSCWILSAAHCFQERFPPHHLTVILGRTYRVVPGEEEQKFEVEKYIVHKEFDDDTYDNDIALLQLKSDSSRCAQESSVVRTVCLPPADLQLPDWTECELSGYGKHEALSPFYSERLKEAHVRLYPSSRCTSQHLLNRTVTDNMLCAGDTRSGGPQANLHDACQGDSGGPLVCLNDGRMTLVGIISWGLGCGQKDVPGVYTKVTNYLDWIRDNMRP
Calls of active or inactive are those of the source. No cut-off for these calls is given here.
Measurement type: Activity

CNCC1(c2ccc(N3CCc4c(C(F)(F)F)nn(-c5ccc(OC)cc5)c4C3=O)cc2)CC1
inactive
COc1ccc(-n2nc(C(F)(F)F)c3c2C(=O)N(c2ccc(C4(CNc5nccs5)CC4)cc2)CC3)cc1
inactive
COc1ccc(-n2nc(C(F)(F)F)c3c2C(=O)N(c2ccc(C4(CNC(C)C)CC4)cc2)CC3)cc1
inactive
COc1ccc(-n2nc(C(F)(F)F)c3c2C(=O)N(c2ccc(C4(CO)CC4)cc2)CC3)cc1
inactive
COc1ccc(-n2nc(C(F)(F)F)c3c2C(=O)N(c2ccc(C4(C(=O)N(C)C)CC4)cc2)CC3)cc1
inactive
COc1ccc(-n2nc(C(F)(F)F)c3c2C(=O)N(c2ccc(C4(Cn5ccnc5C)CC4)cc2)CC3)cc1
inactive
COc1ccc(-n2nc(C(F)(F)F)c3c2C(=O)N(c2ccc(C4(CN(C)C(C)=O)CC4)cc2)CC3)cc1
inactive
COc1ccc(-n2nc(C(F)(F)F)c3c2C(=O)N(c2ccc(C4(C(=O)N5CCC(O)CC5)CC4)cc2)CC3)cc1
inactive
COc1ccc(-n2nc(C(F)(F)F)c3c2C(=O)N(c2ccc(C4(C(=O)Nc5nnn[nH]5)CC4)cc2)CC3)cc1
inactive
COc1ccc(-n2nc(C(F)(F)F)c3c2C(=O)N(c2ccc(C4(CN5CCC(O)CC5)CC4)cc2)CC3)cc1
inactive
COc1ccc(-n2nc(C(F)(F)F)c3c2C(=O)N(c2ccc(C4(CN(C)C)CC4)cc2)CC3)cc1
inactive
COc1ccc(-n2nc(C(F)(F)F)c3c2C(=O)N(c2ccc(C4(CN5CC[C@@H](O)C5)CC4)cc2)CC3)cc1
inactive
COc1ccc(-n2nc(C(F)(F)F)c3c2C(=O)N(c2ccc(C4(CN(C)S(C)(=O)=O)CC4)cc2)CC3)cc1
inactive
COc1ccc(-n2nc(C(F)(F)F)c3c2C(=O)N(c2ccc(C4(C(=O)NC5CCCC5)CC4)cc2)CC3)cc1
inactive
COc1ccc(-n2nc(C(F)(F)F)c3c2C(=O)N(c2ccc(C4(CNC5CCCC5)CC4)cc2)CC3)cc1
inactive
CCN(CC)CC1(c2ccc(N3CCc4c(C(F)(F)F)nn(-c5ccc(OC)cc5)c4C3=O)cc2)CC1
inactive
COC(=O)C1(c2ccc(N3CCc4c(C(F)(F)F)nn(-c5ccc(OC)cc5)c4C3=O)cc2)CC1
inactive
